assay: Half life in human administered as oral dose; format: ADME, organism-based; conditions: in vivo
measured-property: half-life

**Query** GET /values?readout=half-life&item= "CO[C@H]1C[C@@H]2CC[C@@H](C)[C@@](O)(O2)C(=O)C(=O)N2CCCC[C@H]2C(=O)O[C@H]([C@H](C)C[C@@H]2CC[C@@H](O)[C@H](OC)C2)CC(=O)[C@H](C)/C=C(\C)[C@@H](O)[C@@H](OC)C(=O)[C@H](C)C[C@H](C)/C=C/C=C/C=C/1C"
**Result** 62 to 82 h

====

test system: Saccharomyces cerevisiae; experiment: Inhibition of FKBP12 in yeast assessed as reduction in cell proliferation
// values below are reported IC12
State the value with its unit after it.

- chem-smiles: "CCO[C@H]1C[C@@H]2CC[C@@H](C)[C@@](O)(O2)C(=O)C(=O)N2CCCC[C@H]2C(=O)O[C@H]([C@H](C)C[C@@H]2CC[C@@H](O)[C@H](OC)C2)CC(=O)[C@H](C)/C=C(\\C)[C@@H](O)[C@@H](OC)C(=O)[C@H](C)C[C@H](C)/C=C/C=C/C=C/1C"
  IC12: "10 nM"
- chem-smiles: "COc1ccc([C@H]2C[C@@H]3CC[C@@H](C)[C@@](O)(O3)C(=O)C(=O)N3CCCC[C@H]3C(=O)O[C@H]([C@H](C)C[C@@H]3CC[C@@H](O)[C@H](OC)C3)CC(=O)[C@H](C)/C=C(\\C)[C@@H](O)[C@@H](OC)C(=O)[C@H](C)C[C@H](C)/C=C/C=C/C=C/2C)c(OC)c1"
  IC12: "225 nM"
- chem-smiles: "CO[C@@H]1C[C@H](C[C@@H](C)[C@@H]2CC(=O)[C@H](C)/C=C(\\C)[C@@H](O)[C@@H](OC)C(=O)[C@H](C)C[C@H](C)/C=C/C=C/C=C(\\C)CC[C@@H]3CC[C@@H](C)[C@@](O)(O3)C(=O)C(=O)N3CCCC[C@H]3C(=O)O2)CC[C@H]1O"
  IC12: "8 nM"

**Query** Identify the measured IC12 of "COC(=O)N[C@H]1C[C@@H]2CC[C@@H](C)[C@@](O)(O2)C(=O)C(=O)N2CCCC[C@H]2C(=O)O[C@H]([C@H](C)C[C@@H]2CC[C@@H](O)[C@H](OC)C2)CC(=O)[C@H](C)/C=C(\C)[C@@H](O)[C@@H](OC)C(=O)[C@H](C)C[C@H](C)/C=C/C=C/C=C/1C" for Saccharomyces cerevisiae.
**Result** 170 nM

====

test system: Saccharomyces cerevisiae; assay: Inhibition of FKBP12 in yeast assessed as reduction in cell proliferation
// values below are reported IC12

- compound: "COc1cc(OC)c([C@@H]2C[C@@H]3CC[C@@H](C)[C@@](O)(O3)C(=O)C(=O)N3CCCC[C@H]3C(=O)O[C@H]([C@H](C)C[C@@H]3CC[C@@H](O)[C@H](OC)C3)CC(=O)[C@H](C)/C=C(\\C)[C@@H](O)[C@@H](OC)C(=O)[C@H](C)C[C@H](C)/C=C/C=C/C=C/2C)c(OC)c1"
  measured-property: "IC12"
  result: "> 1000 nM"

**Query** GET /values?readout=IC12&item= CO[C@H]1C[C@@H]2CC[C@@H](C)[C@@](O)(O2)C(=O)C(=O)N2CCCC[C@H]2C(=O)O[C@H]([C@H](C)C[C@@H]2CC[C@@H](O)[C@H](OC)C2)CC(=O)[C@H](C)/C=C(\C)[C@@H](O)[C@@H](OC)C(=O)[C@H](C)C[C@H](C)/C=C/C=C/C=C/1C [SIROLIMUS]
**Result** 7 nM

====

system: Saccharomyces cerevisiae; experiment: Inhibition of FKBP12 in yeast assessed as reduction in cell proliferation
// values below are reported IC12
Record the value in nM, omitting the unit from your answer.

- chem-smiles: "CO[C@@H]1C[C@H](C[C@@H](C)[C@@H]2CC(=O)[C@H](C)/C=C(\\C)[C@@H](O)[C@@H](OC)C(=O)[C@H](C)C[C@H](C)/C=C/C=C/C=C(\\C)[C@@H](c3ccco3)C[C@@H]3CC[C@@H](C)[C@@](O)(O3)C(=O)C(=O)N3CCCC[C@H]3C(=O)O2)CC[C@H]1O"
  study-target: "Saccharomyces cerevisiae"
  numeric-value: 12.5

**Query** Identify the measured IC12 of "CO[C@@H]1C[C@H](C[C@@H](C)[C@@H]2CC(=O)[C@H](C)/C=C(\C)[C@@H](O)[C@@H](OC)C(=O)[C@H](C)C[C@H](C)/C=C/C=C/C=C(\C)[C@@H](c3ccc[nH]3)C[C@@H]3CC[C@@H](C)[C@@](O)(O3)C(=O)C(=O)N3CCCC[C@H]3C(=O)O2)CC[C@H]1O" for Saccharomyces cerevisiae.
**Result** 28

====

// values below are reported Ki
biological target: Peptidyl-prolyl cis-trans isomerase FKBP1A (Homo sapiens); assay: Inhibition of recombinant human FKBP12 expressed in Escherichia coli using succinyl-Ala-Phe-Pro-Phe-4-nitroanilide as substrate measured after 5 to 10 mins by spectrophotometric method
Sequence (P62942 whole entry): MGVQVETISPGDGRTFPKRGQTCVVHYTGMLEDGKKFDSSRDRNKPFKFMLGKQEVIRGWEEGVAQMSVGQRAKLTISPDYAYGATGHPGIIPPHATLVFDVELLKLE
Record the value in nM, omitting the unit from your answer.

- chem-smiles: "CO[C@@H]1C[C@H](C[C@@H](C)[C@@H]2CC(=O)[C@H](C)/C=C(\\C)[C@@H](O)[C@@H](OC)C(=O)[C@H](C)C[C@H](C)/C=C/C=C/C=C(\\C)[C@@H](OCc3ccccc3)C[C@@H]3CC[C@@H](C)[C@@](O)(O3)C(=O)C(=O)N3CCCC[C@H]3C(=O)O2)CC[C@H]1O"
  Ki / nM: 5

Proceeding to the next compound to report its Ki.
**Query** GET /values?readout=Ki&item= "CO[C@@H]1C[C@H](C[C@@H](C)[C@@H]2CC(=O)[C@H](C)/C=C(\C)[C@@H](O)[C@@H](OC)C(=O)[C@H](C)C[C@H](C)/C=C/C=C/C=C(\C)[C@H](c3ccco3)C[C@@H]3CC[C@@H](C)[C@@](O)(O3)C(=O)C(=O)N3CCCC[C@H]3C(=O)O2)CC[C@H]1O"
**Result** 6

====

tested on: Saccharomyces cerevisiae; assay: Inhibition of FKBP12 in yeast assessed as reduction in cell proliferation
I would appreciate it if you labelled entries True when IC12 is 20 nM or higher, otherwise False.

# example entries with known answers
- chem-smiles: "CO[C@@H]1C[C@H](C[C@@H](C)[C@@H]2CC(=O)[C@H](C)/C=C(\\C)[C@@H](O)[C@@H](OC)C(=O)[C@H](C)C[C@H](C)/C=C/C=C/C=C(\\C)[C@H](c3ccco3)C[C@@H]3CC[C@@H](C)[C@@](O)(O3)C(=O)C(=O)N3CCCC[C@H]3C(=O)O2)CC[C@H]1O"
  label: "False"
- chem-smiles: "COC(=O)N[C@@H]1C[C@@H]2CC[C@@H](C)[C@@](O)(O2)C(=O)C(=O)N2CCCC[C@H]2C(=O)O[C@H]([C@H](C)C[C@@H]2CC[C@@H](O)[C@H](OC)C2)CC(=O)[C@H](C)/C=C(\\C)[C@@H](O)[C@@H](OC)C(=O)[C@H](C)C[C@H](C)/C=C/C=C/C=C/1C"
  label: "True"
- chem-smiles: "CO[C@@H]1C[C@H](C[C@@H](C)[C@@H]2CC(=O)[C@H](C)/C=C(\\C)[C@@H](O)[C@@H](OC)C(=O)[C@H](C)C[C@H](C)/C=C/C=C/C=C(\\C)[C@H](SC)C[C@@H]3CC[C@@H](C)[C@@](O)(O3)C(=O)C(=O)N3CCCC[C@H]3C(=O)O2)CC[C@H]1O"
  label: "False"
- chem-smiles: "COc1ccc([C@@H]2C[C@@H]3CC[C@@H](C)[C@@](O)(O3)C(=O)C(=O)N3CCCC[C@H]3C(=O)O[C@H]([C@H](C)C[C@@H]3CC[C@@H](O)[C@H](OC)C3)CC(=O)[C@H](C)/C=C(\\C)[C@@H](O)[C@@H](OC)C(=O)[C@H](C)C[C@H](C)/C=C/C=C/C=C/2C)c(OC)c1"
  label: "True"

With those in mind, consider the next molecule.
**Query** Test whether the molecule "CO[C@@H]1C[C@H](C[C@@H](C)[C@@H]2CC(=O)[C@H](C)/C=C(\C)[C@@H](O)[C@@H](OC)C(=O)[C@H](C)C[C@H](C)/C=C/C=C/C=C(\C)[C@@H](OCc3ccc(Cl)cc3)C[C@@H]3CC[C@@H](C)[C@@](O)(O3)C(=O)C(=O)N3CCCC[C@H]3C(=O)O2)CC[C@H]1O" records IC12 of 20 nM or higher.
**Result** False

====

target: UniProt P62942; assay: Inhibition of recombinant human FKBP12 expressed in Escherichia coli using succinyl-Ala-Phe-Pro-Phe-4-nitroanilide as substrate measured after 5 to 10 mins by spectrophotometric method
measured-property: Ki (nM)
Record the value in nM, omitting the unit from your answer.

Observe how each entry below is paired with its result.
- chem-smiles: "COc1ccc([C@@H]2C[C@@H]3CC[C@@H](C)[C@@](O)(O3)C(=O)C(=O)N3CCCC[C@H]3C(=O)O[C@H]([C@H](C)C[C@@H]3CC[C@@H](O)[C@H](OC)C3)CC(=O)[C@H](C)/C=C(\\C)[C@@H](O)[C@@H](OC)C(=O)[C@H](C)C[C@H](C)/C=C/C=C/C=C/2C)c(OC)c1"
  study-target: "UniProt P62942"
  Ki [nM]: 38
- chem-smiles: "COc1cc(OC)c([C@@H]2C[C@@H]3CC[C@@H](C)[C@@](O)(O3)C(=O)C(=O)N3CCCC[C@H]3C(=O)O[C@H]([C@H](C)C[C@@H]3CC[C@@H](O)[C@H](OC)C3)CC(=O)[C@H](C)/C=C(\\C)[C@@H](O)[C@@H](OC)C(=O)[C@H](C)C[C@H](C)/C=C/C=C/C=C/2C)c(OC)c1"
  study-target: "UniProt P62942"
  Ki [nM]: 7
- chem-smiles: "CO[C@@H]1C[C@H](C[C@@H](C)[C@@H]2CC(=O)[C@H](C)/C=C(\\C)[C@@H](O)[C@@H](OC)C(=O)[C@H](C)C[C@H](C)/C=C/C=C/C=C(\\C)[C@@H](c3ccco3)C[C@@H]3CC[C@@H](C)[C@@](O)(O3)C(=O)C(=O)N3CCCC[C@H]3C(=O)O2)CC[C@H]1O"
  study-target: "UniProt P62942"
  Ki [nM]: 3
- chem-smiles: "CO[C@@H]1C[C@H](C[C@@H](C)[C@@H]2CC(=O)[C@H](C)/C=C(\\C)[C@@H](O)[C@@H](OC)C(=O)[C@H](C)C[C@H](C)/C=C/C=C/C=C(\\C)C(=O)C[C@@H]3CC[C@@H](C)[C@@](O)(O3)C(=O)C(=O)N3CCCC[C@H]3C(=O)O2)CC[C@H]1O"
  study-target: "UniProt P62942"
  Ki [nM]: 29
- chem-smiles: "COC(=O)N[C@H]1C[C@@H]2CC[C@@H](C)[C@@](O)(O2)C(=O)C(=O)N2CCCC[C@H]2C(=O)O[C@H]([C@H](C)C[C@@H]2CC[C@@H](O)[C@H](OC)C2)CC(=O)[C@H](C)/C=C(\\C)[C@@H](O)[C@@H](OC)C(=O)[C@H](C)C[C@H](C)/C=C/C=C/C=C/1C"
  study-target: "UniProt P62942"
  Ki [nM]: 4.5
- chem-smiles: "COC(=O)N[C@@H]1C[C@@H]2CC[C@@H](C)[C@@](O)(O2)C(=O)C(=O)N2CCCC[C@H]2C(=O)O[C@H]([C@H](C)C[C@@H]2CC[C@@H](O)[C@H](OC)C2)CC(=O)[C@H](C)/C=C(\\C)[C@@H](O)[C@@H](OC)C(=O)[C@H](C)C[C@H](C)/C=C/C=C/C=C/1C"
  study-target: "UniProt P62942"
  Ki [nM]: 3.7

**Query** GET /values?readout=Ki&item= "CO[C@@H]1C[C@H](C[C@@H](C)[C@@H]2CC(=O)[C@H](C)/C=C(\C)[C@@H](O)[C@@H](OC)C(=O)[C@H](C)C[C@H](C)/C=C/C=C/C=C(\C)[C@H](c3ccc[nH]3)C[C@@H]3CC[C@@H](C)[C@@](O)(O3)C(=O)C(=O)N3CCCC[C@H]3C(=O)O2)CC[C@H]1O"
**Result** 1.5

**Query** GET /values?readout=Ki&item= "CO[C@@H]1C[C@H](C[C@@H](C)[C@@H]2CC(=O)[C@H](C)/C=C(\C)[C@@H](O)[C@@H](OC)C(=O)[C@H](C)C[C@H](C)/C=C/C=C/C=C(\C)[C@@H](OCc3ccc(Cl)cc3)C[C@@H]3CC[C@@H](C)[C@@](O)(O3)C(=O)C(=O)N3CCCC[C@H]3C(=O)O2)CC[C@H]1O"
**Result** 1

**Query** GET /values?readout=Ki&item= "CO[C@@H]1C[C@H](C[C@@H](C)[C@@H]2CC(=O)[C@H](C)/C=C(\C)[C@@H](O)[C@@H](OC)C(=O)[C@H](C)C[C@H](C)/C=C/C=C/C=C(\C)[C@@H](c3ccc[nH]3)C[C@@H]3CC[C@@H](C)[C@@](O)(O3)C(=O)C(=O)N3CCCC[C@H]3C(=O)O2)CC[C@H]1O"
**Result** 10

Reference for the values: ChEMBL document CHEMBL4257468
